FYI, the data here is from paper PMC3404467.

Target: human NPFF2 receptor (Homo sapiens, UniProt Q9Y5X5)
Sequence (Q9Y5X5 whole entry): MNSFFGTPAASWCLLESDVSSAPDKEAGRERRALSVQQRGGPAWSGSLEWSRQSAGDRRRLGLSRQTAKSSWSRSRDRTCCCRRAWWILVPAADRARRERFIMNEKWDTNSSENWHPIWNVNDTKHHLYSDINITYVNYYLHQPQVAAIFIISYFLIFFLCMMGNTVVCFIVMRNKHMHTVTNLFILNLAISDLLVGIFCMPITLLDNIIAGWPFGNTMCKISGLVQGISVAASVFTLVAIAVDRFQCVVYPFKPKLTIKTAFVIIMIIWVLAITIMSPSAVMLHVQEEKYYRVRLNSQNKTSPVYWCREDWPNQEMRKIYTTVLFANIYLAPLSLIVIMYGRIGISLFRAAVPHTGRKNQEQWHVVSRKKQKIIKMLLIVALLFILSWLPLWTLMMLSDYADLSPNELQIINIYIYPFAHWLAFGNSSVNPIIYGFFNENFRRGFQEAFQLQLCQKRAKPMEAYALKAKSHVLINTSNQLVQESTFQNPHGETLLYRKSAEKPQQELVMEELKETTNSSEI
Experiment: IP accumulation assay, wt hNPFF2R in COS-7 cells with chimeric G-protein
Format: cell-based
Conditions: wt hNPFF2R; EC50(compound)/EC50(NPFF at wt)
property_measured: x-fold (fold)
Answer in fold, number only, no unit symbol.

Prompt: Could you share which x-fold value was measured for N=C(N)N/N=C/c1ccc(Br)c(Br)c1 ?
Completion: 1291

Prompt: Could you share which x-fold value was measured for N=C(N)NCCC[C@H](NC(=O)C12CC3CC(CC(C3)C1)C2)C(=O)N[C@@H](Cc1ccccc1)C(N)=O [RF9, 1-Adamantanecarbonyl-RF-NH2, reference compound] ?
Completion: 222

Prompt: Could you share which x-fold value was measured for NC(N)=NCCC[C@@H](NC(=O)C(c1ccccc1)c1ccccc1)C(=O)NCc1ccc(O)cc1 [BIBP3226, reference compound] ?
Completion: 137

Prompt: Could you share which x-fold value was measured for N=C(N)N/N=C/c1ccc(-c2ccc(Br)cc2C(F)(F)F)o1 ?
Completion: 977

Prompt: Could you share which x-fold value was measured for N=C(N)N/N=C/C12CC3CC(CC(C3)C1)C2 ?
Completion: 175
